- Test system: SARS-CoV-2 (BetaCov/Belgium/GHB-03021/2020)
- experimentDescription: microbe, parasite or virus in culture
- Type: cell-based
- conditionSummary: Severe acute respiratory syndrome coronavirus 2, 120 h, read-out: Maximum confluence reached (%)
Where a name gives a salt, the structure may show the parent alone.
measurementKind: Emax

I am curious: what Emax value has been reported for CCCCN(CCCC)CCC(O)c1cc2c(Cl)cc(Cl)cc2c2cc(C(F)(F)F)ccc12 (centres unmarked) ?
51.8%

Requested read-out: Emax. Entry: CC/C(=C(\c1ccc(O)cc1)c1ccc(OCCNC)cc1)c1ccccc1 [Endoxifen HCl]
35.7%

Recorded Emax of CC(C)C(=O)OCC(=O)[C@@]12O[C@H](C3CCCCC3)O[C@@H]1C[C@H]1[C@@H]3CCC4=CC(=O)C=C[C@]4(C)[C@H]3[C@@H](O)C[C@@]12C [Ciclesonide] , please.
35.2%

What value of Emax has been reported for the following compound? C[C@@H]1C[C@@H]([C@H](O)CC2CC(=O)NC(=O)C2)C(=O)[C@@H](C)C1 [CYCLOHEXIMIDE]
63.7%

Consider the compound Cc1ccc(NC(=O)c2ccc(CN3CCN(C)CC3)cc2)cc1Nc1nc(-c2cccnc2)cs1 and give its measured Emax.
57.1%

###

- System: SARS-CoV-2
- conditionSummary: 10 µM
Measured % Inh. (% Inhibition of SARS-CoV-2) of individual entries
Give just the number in %; leave the unit off.

Look over these answered cases.
compound	% Inh. (% Inhibition of SARS-CoV-2) / %
N#Cc1cnc2cnc(NCc3cccnc3)cc2c1Nc1ccc(F)c(Cl)c1	100.7
CCCCCCCCc1ccc(-c2ccc(C(=O)O)cc2)cc1	63.1

# lookup: % Inh. (% Inhibition of SARS-CoV-2) of CC(C)(O)c1ccn2c(-c3ccc(F)c(-c4ccc(F)cc4C#N)c3)cnc2c1F
100.8

Given NC(CO)(CO)CO.Nc1nccc(Oc2ccc(NC(=O)c3cn(COP(=O)(O)O)cc(-c4ccc(F)cc4)c3=O)cc2F)c1Cl , state its recorded % Inh. (% Inhibition of SARS-CoV-2).
89.3

Any idea what % Inh. (% Inhibition of SARS-CoV-2) was measured for Cc1cc(/C=C2\SC(=O)N(c3ccccc3)C2=O)c(C)n1-c1cccnc1 ?
82.5

Give the measured % Inh. (% Inhibition of SARS-CoV-2) of O=C(NCCCCCCNC(=O)ON=C1CCCCC1)ON=C1CCCCC1 .
63.9

Reported % Inh. (% Inhibition of SARS-CoV-2), compound CC(C)(C)c1ccc(-c2nc3c(N4CCN(Cc5ccc6nccnc6c5)CC4)cccc3[nH]2)cc1 : ____
77.1

What value of % Inh. (% Inhibition of SARS-CoV-2) has been reported for the following compound? COC(=O)Nc1ccc(-c2nc(N3CCOCC3)c3cnn(C4CCN(Cc5cccnc5)CC4)c3n2)cc1
105.8

I am curious: what % Inh. (% Inhibition of SARS-CoV-2) value has been reported for CC(C)n1nc(-c2ccc3oc(N)nc3c2)c2c(N)ncnc21 ?
84.9

Quick one: % Inh. (% Inhibition of SARS-CoV-2) for FC(F)(F)Oc1ccc2nc(-c3ccc(OCCOCCOc4ccc(-c5nc6ccc(OC(F)(F)F)cc6[nH]5)nc4)cn3)[nH]c2c1 ?
103.8

# input compound: COCCN1CCN(Cc2ccc(-c3n[nH]c4c3C(=O)c3c(NC(=O)NN5CCOCC5)cccc3-4)cc2)CC1 [RGB-286638 (free base)] ; wanted: its % Inh. (% Inhibition of SARS-CoV-2)
70.2

What value of measured % Inh. (% Inhibition of SARS-CoV-2) is listed for c1ccc(CCCCN2CCC(c3ccccc3)CC2)cc1 ?
63.1

Bench note: what % Inh. (% Inhibition of SARS-CoV-2) did COc1ccc(NC(=O)c2ccc(-c3ccc(-c4noc(C)n4)cc3C)cc2)cc1OCCN(C)C show?
57.6

Record request: % Inh. (% Inhibition of SARS-CoV-2) value, item CN1C/C=C/CCOc2cccc(c2)-c2ccnc(n2)Nc2cccc(c2)C1
56.5

Requested read-out: % Inh. (% Inhibition of SARS-CoV-2). Entry: NC(=O)Nc1sc(-c2ccc(F)cc2)cc1C(N)=O
103.5

Entry CCCCCCCCCCCCCCCc1cccc(OCC(=O)NCCO)c1 has what % Inh. (% Inhibition of SARS-CoV-2)?
65.3

Param item = C[C@@H]1COCCN1c1cc(C2(S(C)(=O)=O)CC2)nc(-c2cccc3[nH]ccc23)n1 ; retrieve measured % Inh. (% Inhibition of SARS-CoV-2).
100.0
